Reported EC50 values for the following compounds.
Molecular target: human somatostatin receptor subtype 5 (Homo sapiens, UniProt P35346)
Construct: expressed in transfected cells
Sequence (P35346 whole entry): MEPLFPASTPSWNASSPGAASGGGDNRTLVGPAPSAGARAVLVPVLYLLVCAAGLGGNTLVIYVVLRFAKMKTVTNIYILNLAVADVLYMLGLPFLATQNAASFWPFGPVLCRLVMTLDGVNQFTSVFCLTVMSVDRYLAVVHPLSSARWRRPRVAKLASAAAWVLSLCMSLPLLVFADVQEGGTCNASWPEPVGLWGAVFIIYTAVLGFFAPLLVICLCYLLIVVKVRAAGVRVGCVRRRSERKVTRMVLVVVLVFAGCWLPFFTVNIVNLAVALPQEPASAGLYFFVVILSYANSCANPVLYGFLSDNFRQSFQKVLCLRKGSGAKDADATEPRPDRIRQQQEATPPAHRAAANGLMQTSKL
Test: cAMP assay for SST5R (inhibition of cAMP in CHO-K1 cells)
Format: cell-based
Conditions: Table A; inhibition of cAMP via human SST5 receptor; read-out: SST5 potency
QUANTITY NAME: EC50

COMPOUND STRING	RECORDED RESULT
Cc1ncc(C(=O)N[C@@H](C)C2CC2)c(N2CC[C@](C)(N)C2)c1-c1cc(F)cc(OC(F)F)c1	< 10 nM
Cc1cccc2[nH]c(-c3cncc(C(=O)N4CCC(F)(F)C4)c3N3CC[C@](C)(N)C3)nc12	10 to 100 nM
C[C@H](NC(=O)c1cncc(-c2cc(F)cc(F)c2)c1N1CC[C@](C)(N)C1)C1CC1	< 10 nM
C[C@H](NC(=O)c1cnc(C#N)c(-c2cc(F)cc(F)c2)c1N1CC[C@H](N)C1)c1ccccn1	< 10 nM
CCC(CC)NC(=O)c1cnc(C#N)c(-c2cc(F)cc(F)c2)c1N1CC[C@](C)(N)C1	< 10 nM
C[C@]1(N)CCN(c2c(C(=O)NC3CCC(F)(F)CC3)cnc(C(F)(F)F)c2-c2cc(F)cc(F)c2)C1	< 10 nM
C[C@H](NC(=O)c1cnc(OCCC(=O)O)c(-c2cc(F)cc(F)c2)c1N1CC[C@](C)(N)C1)C1CC1	< 10 nM
Cc1cccc2[nH]c(-c3cncc(C(=O)NCC4CC4)c3N3CC[C@](C)(N)C3)nc12	< 10 nM
COc1cc(-c2c(C)ncc(C(=O)NC3CCCC3)c2N2CC[C@](C)(N)C2)ccn1	< 10 nM
Cc1cccc2[nH]c(-c3cncc(C(=O)N(C)C4CCCC4)c3N3CC[C@](C)(N)C3)nc12	< 10 nM
C[C@]1(N)CCN(c2c(C(=O)NC3CC3)cncc2-c2cc(F)cc(F)c2)C1	10 to 100 nM
C[C@]1(N)CCN(c2cc(C#N)ncc2C(=O)NC23CC(C2)C3)C1	100 to 1000 nM
Cc1ncc(C(=O)N[C@@H](C)C2CC2)c(N2CC[C@](C)(N)C2)c1-c1cncc(F)c1	< 10 nM
C[C@]1(N)CCN(c2c(C(=O)NCc3ncccn3)cnc(C#N)c2-c2cc(F)cc(F)c2)C1	< 10 nM
COc1ncc(C(=O)N2CCCCC2)c(N2CC[C@H](N)C2)c1-c1cc(F)cc(F)c1	> 1000 nM
C[C@H](NC(=O)c1cnc(C(F)(F)F)c(-c2cc(F)cc(Cl)c2)c1N1CC[C@](C)(N)C1)C1CC1	< 10 nM

###

Biological target: human somatostatin receptor subtype 5 (Homo sapiens)
Construct: expressed in transfected cells
Experiment: cAMP assay for SST5R (inhibition of cAMP in CHO-K1 cells)
Assay type: cell-based
Conditions: Table B; inhibition of cAMP via human SST5 receptor; read-out: SST5 potency
pEC50: −log10 of the molar value.
Parameter pEC50: see the listing below.

COMPOUND	TARGET OR TEST SYSTEM	pEC50
Cc1ncc(C(=O)N[C@@H](C)C2CC2)c(N2CC[C@](C)(N)C2)c1-c1cncc(F)c1	human somatostatin receptor subtype 5 (Homo sapiens)	> 8.00
CCC(CC)NC(=O)c1cnc(C#N)c(-c2ccnc(C(F)(F)F)c2)c1N1CC[C@](C)(N)C1	human somatostatin receptor subtype 5 (Homo sapiens)	> 8.00
C[C@]1(N)CCN(c2c(C(=O)NC(C3CC3)C3CC3)cncc2-c2cc(F)cc(F)c2)C1	human somatostatin receptor subtype 5 (Homo sapiens)	> 8.00
N#Cc1ncc(C(=O)NCCCc2ccccc2)c(N2CC[C@H](N)C2)c1-c1cc(F)cc(F)c1	human somatostatin receptor subtype 5 (Homo sapiens)	> 8.00
Cc1ncc(-c2c(C#N)ncc(C(=O)N[C@@H](C)C3CC3)c2N2CC[C@](C)(N)C2)s1	human somatostatin receptor subtype 5 (Homo sapiens)	> 8.00
COc1cc(C#N)cc(-c2c(C)ncc(C(=O)N[C@@H](C)C(F)(F)F)c2N2CC[C@](C)(N)C2)c1	human somatostatin receptor subtype 5 (Homo sapiens)	> 8.00
COc1cc(C#N)cc(-c2cncc(C(=O)NC34CC(C3)C4)c2N2CC[C@](C)(N)C2)c1	human somatostatin receptor subtype 5 (Homo sapiens)	> 8.00
COc1ncc(C(=O)N[C@@H](C)C2CC2)c(N2CC[C@](C)(N)C2)c1-c1cccc(OC(F)(F)F)c1	human somatostatin receptor subtype 5 (Homo sapiens)	> 8.00
COc1ncc(C(=O)N[C@@H](C)C2CC2)c(N2CC[C@H](N)C2)c1-c1cc(F)cc(Cl)c1	human somatostatin receptor subtype 5 (Homo sapiens)	> 8.00
CCC(CC)NC(=O)c1cnc(C#N)c(-c2cc(F)cc(F)c2)c1N1CC[C@](C)(N)C1	human somatostatin receptor subtype 5 (Homo sapiens)	> 8.00
Cc1ncc(C(=O)NC2CCC(F)(F)CC2)c(N2CC[C@](C)(N)C2)c1-c1cc(F)cc(F)c1	human somatostatin receptor subtype 5 (Homo sapiens)	> 8.00
COc1ncc(C(=O)N[C@@H](C)C(F)(F)F)c(N2CC[C@](C)(N)C2)c1-c1cc(F)cc(OC(F)F)c1	human somatostatin receptor subtype 5 (Homo sapiens)	> 8.00
C[C@H](NC(=O)c1cnc(C#N)c(-c2cc(F)cc(F)c2)c1N1CC[C@](C)(N)C1)C1CC1	human somatostatin receptor subtype 5 (Homo sapiens)	> 8.00
Cc1ncc(C(=O)NCc2ccon2)c(N2CC[C@](C)(N)C2)c1-c1cc(F)cc(Cl)c1	human somatostatin receptor subtype 5 (Homo sapiens)	> 8.00
Cc1ncc(C(=O)NC2CCC(F)(F)CC2)c(N2CC[C@H](N)C2)c1-c1cc(F)cc(Cl)c1	human somatostatin receptor subtype 5 (Homo sapiens)	> 8.00
Cc1cccc(NC(=O)c2cncc(-c3ccnc(C#N)c3)c2N2CC[C@](C)(N)C2)c1	human somatostatin receptor subtype 5 (Homo sapiens)	> 8.00
Cc1cccc2[nH]c(-c3cncc(C(=O)N[C@@H](C)C(F)(F)F)c3N3CC[C@](C)(N)C3)nc12	human somatostatin receptor subtype 5 (Homo sapiens)	> 8.00
CC(C)CNC(=O)c1cnc(C#N)c(-c2cc(F)cc(F)c2)c1N1CC[C@](C)(N)C1	human somatostatin receptor subtype 5 (Homo sapiens)	> 8.00
Cc1cc(C)cc(NC(=O)c2cncc(-c3cc(C)cc(C)c3)c2N2CC[C@H](N)C2)c1	human somatostatin receptor subtype 5 (Homo sapiens)	> 8.00
CCOC(=O)CCOc1ncc(C(=O)NC2CCC(F)(F)CC2)c(N2CC[C@H](N)C2)c1-c1cc(F)cc(F)c1	human somatostatin receptor subtype 5 (Homo sapiens)	> 8.00
Cc1ncc(C(=O)N[C@@H](C)C(F)(F)F)c(N2CC[C@](C)(N)C2)c1-c1ccc(F)c(F)c1	human somatostatin receptor subtype 5 (Homo sapiens)	> 8.00
COc1cc(-c2c(C#N)ncc(C(=O)NC3CCCCC3)c2N2CC[C@](C)(N)C2)ccn1	human somatostatin receptor subtype 5 (Homo sapiens)	> 8.00
COc1cc(-c2c(C#N)ncc(C(=O)NCC(C)C)c2N2CC[C@](C)(N)C2)ccn1	human somatostatin receptor subtype 5 (Homo sapiens)	> 8.00
C[C@H](NC(=O)c1cnc(C#N)c(-c2cccc(OC(F)(F)F)c2)c1N1CC[C@](C)(N)C1)C1CC1	human somatostatin receptor subtype 5 (Homo sapiens)	> 8.00
C[C@H](NC(=O)c1cnc(C#N)c(-c2cc(F)cc(F)c2)c1N1CC[C@H](N)C1)C1CC1	human somatostatin receptor subtype 5 (Homo sapiens)	> 8.00
N#Cc1ncc(C(=O)NC23CC(C2)C3)c(N2CC[C@H](N)C2)c1-c1cc(F)cc(F)c1	human somatostatin receptor subtype 5 (Homo sapiens)	> 8.00
C[C@]1(N)CCN(c2c(C(=O)NCC3CC3)cnc(C#N)c2-c2cc(F)cc(F)c2)C1	human somatostatin receptor subtype 5 (Homo sapiens)	> 8.00
COc1cc(-c2c(C)ncc(C(=O)NC3CCCC3)c2N2CC[C@](C)(N)C2)ccn1	human somatostatin receptor subtype 5 (Homo sapiens)	> 8.00
CC(NC(=O)c1cnc(C#N)c(-c2cc(F)cc(F)c2)c1N1CC[C@](C)(N)C1)c1ncccn1 (stereo partly drawn)	human somatostatin receptor subtype 5 (Homo sapiens)	> 8.00
C[C@H](NC(=O)c1cnc(C#N)c(-c2cc(F)cc(Cl)c2)c1N1CC[C@](C)(N)C1)c1ccccn1	human somatostatin receptor subtype 5 (Homo sapiens)	> 8.00
COc1cc(-c2c(C#N)ncc(C(=O)NC3CCCC3)c2N2CC[C@](C)(N)C2)ccn1	human somatostatin receptor subtype 5 (Homo sapiens)	> 8.00
Cc1cc(F)cc(-c2cncc(C(=O)NC3CCC(F)(F)CC3)c2N2CC[C@](C)(N)C2)c1	human somatostatin receptor subtype 5 (Homo sapiens)	> 8.00
COCCOc1ncc(C(=O)N[C@@H](C)C2CC2)c(N2CC[C@](C)(N)C2)c1-c1cc(F)cc(F)c1	human somatostatin receptor subtype 5 (Homo sapiens)	> 8.00

###

Target: human somatostatin receptor subtype 5 (Homo sapiens, UniProt P35346)
Construct: expressed in transfected cells
Assay: cAMP assay for SST5R (inhibition of cAMP in CHO-K1 cells)
Format: cell-based
Conditions: Table B; class symbols; SST5 receptor over SST2 receptor

COMPOUND	Fold selectivity for SST5 vs SST2
N#Cc1ncc(C(=O)NC23CC(C2)C3)c(N2CC[C@@](N)(CO)C2)c1-c1cc(F)cc(F)c1 [1-98]	++ (++=100 to 499)
Cc1ncc(C(=O)NC2CCCC2)c(N2CC[C@](C)(N)C2)c1-c1ccnc(C(F)(F)F)c1 [1-258]	+++ (+++=>500)
Cc1cccc2[nH]c(-c3cncc(C(=O)N4CC5CCC4CC5)c3N3CC[C@](C)(N)C3)nc12 [2-35]	++ (++=100 to 499)
C[C@H](NC(=O)c1cnc(C(F)(F)F)c(-c2cc(F)cc(Cl)c2)c1N1CC[C@](C)(N)C1)C1CC1 [1-195]	++ (++=100 to 499)
C[C@H](NC(=O)c1cnc(C#N)c(-c2cc(F)cc(OC(F)F)c2)c1N1CC[C@](C)(N)C1)C(F)(F)F [1-180]	+++ (+++=>500)
Cc1ncc(C(=O)N[C@@H](C)C2CC2)c(N2CC[C@](C)(N)C2)c1-c1cncc(Cl)c1 [1-158]	+++ (+++=>500)
C[C@H](NC(=O)c1cnc(OCCO)c(-c2cc(F)cc(F)c2)c1N1CC[C@](C)(N)C1)C1CC1 [1-246]	+++ (+++=>500)
COc1cc(C#N)cc(-c2c(C)ncc(C(=O)NC3CCC(F)(F)CC3)c2N2CC[C@](C)(N)C2)c1 [1-268]	+++ (+++=>500)
